Where a name gives a salt, the structure may show the parent alone.
MEASURED ENDPOINT: melting point (°C)

COMPOUND	ENDPOINT VALUE
CC(C)n1cc(-c2nc(C#N)c(N)nc2-c2ccc(F)c(F)c2)ccc1=O (hydrate or solvate) [Example 39]	180
CC(C)n1cc(-c2nc(C(N)=O)c(N)nc2-c2ccc(OC(F)(F)F)cc2)ccc1=O (hydrate or solvate) [Example 28]	264
CC(C)n1cc(-c2nc(C(N)=O)c(N)nc2-c2cccc(F)c2)ccc1=O (hydrate or solvate) [Example 18]	258.8
CC(C)n1cc(-c2nc(C(N)=O)c(N)nc2-c2ccc(C#N)cc2)ccc1=O (hydrate or solvate) [Example 31]	292
CC(C)n1cc(-c2nc(C(N)=O)c(N)nc2-c2cccc(Cl)c2)ccc1=O (hydrate or solvate) [Example 21]	232.6
CC(C)n1cc(-c2nc(C#N)c(N)nc2-c2ccccc2F)ccc1=O (hydrate or solvate) [Example 33]	210.6
CC(C)n1cc(-c2nc(C(N)=O)c(N)nc2-c2ccccc2F)ccc1=O (hydrate or solvate) [Example 17]	251.7
COc1ccccc1-c1nc(N)c(C(N)=O)nc1-c1ccc(=O)n(C(C)C)c1 (hydrate or solvate) [Example 23]	263.1
CC(C)n1cc(-c2nc(C(N)=O)c(N)nc2-c2ccc(Cl)cc2)ccc1=O (hydrate or solvate) [Example 22]	246.2
CC(C)n1cc(-c2nc(C#N)c(N)nc2-c2ccccc2)ccc1=O [Example 14]	204.5
CC(C)n1cc(-c2nc(C#N)c(N)nc2-c2ccccc2)ccc1=O (as salt: Na) (hydrate or solvate) [Example 32]	205.4
COc1ccc(-c2nc(N)c(C#N)nc2-c2ccc(=O)n(C(C)C)c2)cc1 (hydrate or solvate) [Example 38]	243.9
CC(C)n1cc(-c2nc(C#N)c(N)nc2-c2cccc(F)c2)ccc1=O (hydrate or solvate) [Example 34]	210.6
CC(C)n1cc(-c2nc(C(N)=O)c(N)nc2-c2ccccc2OC(F)(F)F)ccc1=O (hydrate or solvate) [Example 26]	206.5
COc1cccc(-c2nc(N)c(C#N)nc2-c2ccc(=O)n(C(C)C)c2)c1 (hydrate or solvate) [Example 37]	192.3
CC(C)n1cc(-c2nc(C(N)=O)c(N)nc2-c2ccc(F)c(F)c2)ccc1=O (hydrate or solvate) [Example 29]	225.8
CC(C)n1cc(-c2nc(C(N)=O)c(N)nc2-c2ccc(F)cc2)ccc1=O (hydrate or solvate) [Example 19]	235.6
CC(C)n1cc(-c2nc(C(N)=O)c(N)nc2-c2cccc(OC(F)(F)F)c2)ccc1=O (hydrate or solvate) [Example 27]	265.5
COc1cccc(-c2nc(N)c(C(N)=O)nc2-c2ccc(=O)n(C(C)C)c2)c1 (hydrate or solvate) [Example 24]	192.3
CC(C)n1cc(-c2nc(C(=O)O)c(N)nc2-c2ccc(F)cc2)ccc1=O (hydrate or solvate) [Example 40]	222.2

All values here come from patent US7407961B2.
